Conditions: 20% cynomolgus monkey fecal homogenate, 37° C., 20 μM
measured.endpoint: t½: Monkey Feces anaerobic

Worked set:
1. CC(=O)NCCCC[C@H](NC(=O)C1(NC(=O)[C@H](Cc2ccc3ccccc3c2)NC(=O)[C@H](Cc2ccc(OCCN)cc2)NC(=O)[C@H]2NC(=O)[C@H](CCC(N)=O)NC(=O)[C@H](Cc3c[nH]c4c(C)cccc34)NC(=O)[C@H]([C@@H](C)O)NC(=O)[C@H](CC(N)=O)NC(=O)[C@@H](NC(C)=O)C(C)(C)SSC2(C)C)CCNCC1)C(=O)N[C@@H](CC(N)=O)C(=O)NCCC(N)=O
8 h
2. CC(=O)NCCCC[C@H](NC(=O)[C@](C)(CCCCN)NC(=O)[C@H](Cc1ccc2ccccc2c1)NC(=O)[C@H](Cc1ccc(OCCN)cc1)NC(=O)[C@H]1NC(=O)[C@H](CCC(N)=O)NC(=O)[C@H](Cc2c[nH]c3c(C)cccc23)NC(=O)[C@H]([C@@H](C)O)NC(=O)[C@H](CC(N)=O)NC(=O)[C@@H](NC(C)=O)C(C)(C)SSC1(C)C)C(=O)N[C@@H](CC(N)=O)C(=O)NCCC(N)=O
4 h

Pending compound:
# compound CC(=O)NCCCC[C@@H]1NC(=O)[C@H](Cc2c[nH]c3c(C)cccc23)NC(=O)[C@H]([C@@H](C)O)NC(=O)[C@H](CC(N)=O)NC(=O)[C@@H](NC(C)=O)C(C)(C)SSC(C)(C)[C@@H](C(=O)N[C@@H](Cc2ccc(OCCN)cc2)C(=O)N[C@@H](Cc2ccc3ccccc3c2)C(=O)N[C@@](C)(CCCCN)C(=O)N[C@@H](CCCCNC(C)=O)C(=O)N[C@@H](CC(N)=O)C(=O)N[C@H](Cc2ccccc2)C(N)=O)NC1=O ; its t½: Monkey Feces anaerobic = >24 h

====

Consider the following compounds; for each one, report its half-life at 20 μM.
Test: Stability in simulated gastric fluid (SGF)
Assay type: in vitro ADME
Conditions: pig (pepsin), simulated gastric fluid (SGF) with porcine pepsin, pH=2, 37° C., 20 μM peptide, read-out: SGF t½ (converted)
Give bare numbers, in min.

1. CC(=O)NCCCC[C@H](NC(=O)[C@](C)(CC(C)C)NC(=O)[C@H](Cc1ccc2ccccc2c1)NC(=O)[C@H](Cc1ccc(OCCN)cc1)NC(=O)[C@H]1NC(=O)[C@H](CCC(N)=O)NC(=O)[C@H](Cc2c[nH]c3cc(Cl)ccc23)NC(=O)[C@H]([C@@H](C)O)NC(=O)[C@H](CC(N)=O)NC(=O)[C@@H](NC(C)=O)C(C)(C)SSC1(C)C)C(=O)N[C@@H](CC(N)=O)C(=O)N[C@@H](CC(N)=O)C(N)=O [compound 2]
780

Switching to the query record.
half-life at 20 μM measured on CC(=O)N[C@H]1CCSC[C@@H](C(=O)N[C@@H](Cc2ccc(OCCN)cc2)C(=O)N[C@@H](Cc2ccc3ccccc3c2)C(=O)NC2(C(=O)N[C@@H](CCC(=O)O)C(=O)N[C@@H](CC(N)=O)C(=O)N[C@@H](CC(N)=O)C(N)=O)CCOCC2)NC(=O)[C@H](CCC(N)=O)NC(=O)[C@H](Cc2c[nH]c3c(C)cccc23)NC(=O)[C@H]([C@@H](C)O)NC(=O)[C@H](CCC(N)=O)NC1=O [compound 28] = 180
